Each recorded value in this set is attributed to patent US20220306617A1.

Molecular target: abc isoform of human TMEM16A channel expressed in CHO cells (Homo sapiens, UniProt Q5XXA6, DEL476-501)
Sequence (Q5XXA6 with tags, fused parts or gaps isoform Q5XXA6-5 DEL539-564): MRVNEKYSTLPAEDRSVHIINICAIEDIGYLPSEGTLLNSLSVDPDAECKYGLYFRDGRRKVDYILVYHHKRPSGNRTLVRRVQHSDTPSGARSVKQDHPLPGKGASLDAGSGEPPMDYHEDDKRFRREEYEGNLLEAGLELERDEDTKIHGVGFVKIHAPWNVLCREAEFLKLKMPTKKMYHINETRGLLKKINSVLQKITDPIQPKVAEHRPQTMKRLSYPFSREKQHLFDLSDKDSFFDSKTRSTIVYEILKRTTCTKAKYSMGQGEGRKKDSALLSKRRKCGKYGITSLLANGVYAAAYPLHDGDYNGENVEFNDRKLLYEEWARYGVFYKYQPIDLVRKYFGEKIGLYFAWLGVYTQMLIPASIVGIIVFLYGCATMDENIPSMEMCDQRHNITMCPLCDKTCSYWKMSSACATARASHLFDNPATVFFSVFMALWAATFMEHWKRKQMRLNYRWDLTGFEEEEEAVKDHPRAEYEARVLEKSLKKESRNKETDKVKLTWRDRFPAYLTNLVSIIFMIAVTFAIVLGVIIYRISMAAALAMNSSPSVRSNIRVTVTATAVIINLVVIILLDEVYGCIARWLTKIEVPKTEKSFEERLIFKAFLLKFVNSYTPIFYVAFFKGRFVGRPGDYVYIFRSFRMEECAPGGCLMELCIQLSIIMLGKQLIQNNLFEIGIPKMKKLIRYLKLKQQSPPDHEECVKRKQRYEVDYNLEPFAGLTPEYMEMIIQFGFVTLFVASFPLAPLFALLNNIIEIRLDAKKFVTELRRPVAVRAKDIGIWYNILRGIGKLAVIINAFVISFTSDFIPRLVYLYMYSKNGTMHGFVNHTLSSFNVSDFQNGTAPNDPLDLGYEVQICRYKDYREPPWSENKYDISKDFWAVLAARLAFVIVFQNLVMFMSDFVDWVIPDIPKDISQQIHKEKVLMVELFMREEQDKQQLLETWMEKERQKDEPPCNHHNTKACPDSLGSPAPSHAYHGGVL
Test: Automated patch clamping (QPatch) assay to measure TMEM16A activity in whole-cell
Conditions: CHO cells expressing human TMEM16A (abc), whole-cell automated patch clamp, Hill fit; read-out: TMEM16A QPATCH assay EC50 V3 EC50
Where a name gives a salt, the structure may show the parent alone.
metric: EC50
Units required after the number.

Suppose we examine the compound CCC(CC)NC(=O)c1cc(-c2cccc(-c3ncc(C(=O)NC(C)(C)C)o3)c2)[nH]n1 ; what EC50 value has been reported?
400 nM

Suppose we examine the compound C[C@H](NC(=O)c1cc(-c2cccc(-c3ncc(C(=O)NC(C4CC4)C4CC4)o3)c2)nn1CC(O)C(F)(F)F)C1CC1 (single isomer, unassigned) [Example 9.2 (i)] ; what EC50 value has been reported?
130 nM

Suppose we examine the compound CCC(CC)NC(=O)c1cnc(-c2cccc(-c3cc(C(=O)NCC(C)(C)OC)n[nH]3)c2)o1 ; what EC50 value has been reported?
270 nM

Suppose we examine the compound CCC(CC)NC(=O)c1cc(-c2cccc(-c3ncc(C(=O)NCc4c(F)cccc4F)o3)c2)[nH]n1 ; what EC50 value has been reported?
430 nM

Suppose we examine the compound CCC(CC)NC(=O)c1cnc(-c2cccc(-c3cc(C(=O)N[C@H](C)c4ccccc4)n[nH]3)c2)o1 ; what EC50 value has been reported?
110 nM

Suppose we examine the compound CCOC(=O)[C@@H](NC(=O)c1cnc(-c2cccc(-c3cc(C(=O)N[C@@H](CC(C)C)C(=O)OC)n[nH]3)c2)o1)C(C)C ; what EC50 value has been reported?
30 nM

Suppose we examine the compound CCC(CC)NC(=O)c1cnc(-c2cccc(-c3cc(C(=O)N4CCC(C(=O)OC(C)(C)C)C4)n[nH]3)c2)o1 (centres unmarked) [Example 3.62, Trifluoroacetate] ; what EC50 value has been reported?
960 nM

Suppose we examine the compound CCC(CC)NC(=O)c1cnc(-c2cccc(-c3cc(C(=O)NC4CCCC4)n[nH]3)c2)o1 ; what EC50 value has been reported?
120 nM

Suppose we examine the compound C[C@H](NC(=O)c1cnc(-c2cccc(-c3nnc(C(=O)N[C@H](C)C4CC4)[nH]3)c2)o1)C1CC1 ; what EC50 value has been reported?
310 nM

Suppose we examine the compound CCOC(=O)[C@@H](NC(=O)c1cnc(-c2cccc(-c3nnc(C(=O)N[C@@H](C)C4CC4)[nH]3)c2)o1)C(C)C ; what EC50 value has been reported?
50 nM

Suppose we examine the compound CCC(CC)NC(=O)c1cnc(-c2cccc(-c3cc(C(=O)NCCOC(C)C)n[nH]3)c2)o1 ; what EC50 value has been reported?
500 nM

Suppose we examine the compound COC(=O)[C@@H](NC(=O)c1cnc(-c2cccc(-c3cc(C(=O)NC(C4CC4)C4CC4)n(CC(C)(C)O)n3)c2)o1)C(C)C ; what EC50 value has been reported?
420 nM

Suppose we examine the compound CCOC(=O)[C@@H](NC(=O)c1cnc(-c2cccc(-c3cc(C(=O)NC(C4CC4)C(F)(F)F)[nH]n3)c2)o1)C(C)C (single isomer, unassigned) [Example 2.3 (ii)] ; what EC50 value has been reported?
80 nM

Suppose we examine the compound C[C@H](NC(=O)c1nnc(-c2cccc(-c3ncc(C(=O)NC45CC6CC(CC(C6)C4)C5)o3)c2)[nH]1)C1CC1 ; what EC50 value has been reported?
420 nM

Suppose we examine the compound CCOC(=O)CCCCCn1nc(-c2cccc(-c3ncc(C(=O)NC(CC)CC)o3)c2)nc1C(=O)NC(CC)CC ; what EC50 value has been reported?
440 nM

Suppose we examine the compound C[C@@H](NC(=O)c1nnc(-c2cccc(-c3ncc(C(=O)NC(C4CC4)C4CC4)o3)c2)[nH]1)C1CC1 ; what EC50 value has been reported?
110 nM

Suppose we examine the compound COC(=O)[C@@H](NC(=O)c1cnc(-c2cccc(-c3cc(C(=O)NC(C4CC4)C4CC4)[nH]n3)c2)o1)C(C)C ; what EC50 value has been reported?
10 nM

Suppose we examine the compound CCC(CC)NC(=O)c1cnc(-c2cccc(-c3cc(C(=O)NC(C)(C)C)n[nH]3)c2)o1 ; what EC50 value has been reported?
130 nM

Suppose we examine the compound CCOC(=O)[C@@H](NC(=O)c1cnc(-c2cccc(-c3cc(C(=O)N[C@@H](C(=O)OC)C(C)C)[nH]n3)c2)o1)C(C)C ; what EC50 value has been reported?
140 nM

Suppose we examine the compound CCC(CC)NC(=O)c1cnc(-c2cccc(-c3cc(C(=O)N4CCCC4C(C)C)n[nH]3)c2)o1 (centres unmarked) ; what EC50 value has been reported?
180 nM

Suppose we examine the compound CCC(CC)NC(=O)c1cnc(-c2cccc(-c3cc(C(=O)N[C@@H](Cc4ccccc4)C(=O)OC)n[nH]3)c2)o1 ; what EC50 value has been reported?
350 nM

Suppose we examine the compound CCC(CC)NC(=O)c1cnc(-c2cccc(-c3cc(C(=O)N[C@@H](C)C4CC4)n(C4COC4)n3)c2)o1 ; what EC50 value has been reported?
400 nM

Suppose we examine the compound CCOC(=O)[C@H](Cc1ccccc1)NC(=O)c1cc(-c2cccc(-c3ncc(C(=O)NC(CC)CC)o3)c2)[nH]n1 ; what EC50 value has been reported?
140 nM

Suppose we examine the compound C[C@H](NC(=O)c1nnc(-c2cccc(-c3ncc(C(=O)N[C@H](C)C4CC4)o3)c2)[nH]1)C1CC1 ; what EC50 value has been reported?
270 nM

Suppose we examine the compound CCC(CC)NC(=O)c1cc(-c2cccc(-c3ncc(C(=O)N[C@@H](CC(C)C)C(=O)OC)o3)c2)[nH]n1 ; what EC50 value has been reported?
640 nM

Suppose we examine the compound CCC(CC)NC(=O)c1cnc(-c2cccc(-c3cc(C(=O)N[C@@H](C)C4CC4)n(CC(O)C(F)(F)F)n3)c2)o1 (some centres unmarked) ; what EC50 value has been reported?
80 nM

---

Give measured Emax for each item. Keep answers brief.
Molecular target: abc isoform of human TMEM16A channel expressed in CHO cells (Homo sapiens, UniProt Q5XXA6, DEL476-501)
Construct: expressed in transfected cells; host or cells: CHO cells, doxycycline-inducible expression under Blasticidin/Zeocin selection
Sequence (Q5XXA6 with tags, fused parts or gaps isoform Q5XXA6-5 DEL539-564): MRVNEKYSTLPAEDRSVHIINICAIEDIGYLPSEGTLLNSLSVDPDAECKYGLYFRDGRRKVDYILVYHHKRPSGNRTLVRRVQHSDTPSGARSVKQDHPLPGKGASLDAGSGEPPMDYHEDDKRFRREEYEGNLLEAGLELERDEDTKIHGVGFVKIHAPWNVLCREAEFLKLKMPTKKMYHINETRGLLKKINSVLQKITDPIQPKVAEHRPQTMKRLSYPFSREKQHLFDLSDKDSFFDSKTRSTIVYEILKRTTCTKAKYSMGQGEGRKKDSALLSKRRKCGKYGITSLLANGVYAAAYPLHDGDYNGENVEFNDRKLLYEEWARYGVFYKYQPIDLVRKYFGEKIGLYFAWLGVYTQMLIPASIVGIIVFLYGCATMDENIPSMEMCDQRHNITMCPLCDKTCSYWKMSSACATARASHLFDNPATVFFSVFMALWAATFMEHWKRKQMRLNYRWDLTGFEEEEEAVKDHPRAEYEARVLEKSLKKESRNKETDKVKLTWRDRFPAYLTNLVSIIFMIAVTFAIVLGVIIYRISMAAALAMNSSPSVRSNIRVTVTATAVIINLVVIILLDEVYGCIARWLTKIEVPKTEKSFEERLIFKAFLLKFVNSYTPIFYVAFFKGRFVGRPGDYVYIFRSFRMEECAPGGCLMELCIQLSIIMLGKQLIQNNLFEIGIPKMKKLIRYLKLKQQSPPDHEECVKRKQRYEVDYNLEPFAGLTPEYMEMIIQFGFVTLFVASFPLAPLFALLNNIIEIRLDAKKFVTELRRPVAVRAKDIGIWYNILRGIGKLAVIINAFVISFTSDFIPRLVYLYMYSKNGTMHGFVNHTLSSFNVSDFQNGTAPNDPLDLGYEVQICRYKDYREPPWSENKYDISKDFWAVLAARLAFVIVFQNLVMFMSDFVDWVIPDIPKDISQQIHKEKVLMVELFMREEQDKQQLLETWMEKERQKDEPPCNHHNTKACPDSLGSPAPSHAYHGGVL
Assay: Automated patch clamping (QPatch) assay to measure TMEM16A activity in whole-cell
Format: cell-based
Details: CHO, maximum current at highest dose relative to reference potentiator at maximal concentration (upper limit) and vehicle (lower limit); read-out: TMEM16A QPATCH assay EC50 V3 Assay Window (% TMEM16A max activation)
Where a name gives a salt, the structure may show the parent alone.
A number alone suffices; assume %.

Suppose we examine the compound CCC(CC)NC(=O)c1cc(-c2cccc(-c3ncc(C(=O)N[C@@H](COC(C)(C)C)C(=O)OC(C)(C)C)o3)c2)[nH]n1 [Example 1.50, Trifluoroacetate] ; what Emax value has been reported?
115

Suppose we examine the compound CCC(CC)NC(=O)c1cc(-c2cccc(-c3ncc(C(=O)NC(C)(C)C(=O)OC(C)(C)C)o3)c2)[nH]n1 ; what Emax value has been reported?
76

Suppose we examine the compound CCC(CC)NC(=O)c1cc(-c2cccc(-c3ncc(C(=O)N[C@H](C(=O)OC(C)(C)C)C(C)C)o3)c2)[nH]n1 ; what Emax value has been reported?
146
